Consider the following variants; for each one, report its self-cleavage kobs at 640 uM GlcN6P.
B1: glmS ribozyme (parent)
chain: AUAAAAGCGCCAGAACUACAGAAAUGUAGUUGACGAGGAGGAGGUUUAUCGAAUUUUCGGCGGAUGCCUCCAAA

- Variants of: B1
- TEST SUMMARY: self-cleavage kobs at 640 uM GlcN6P; higher = faster cleavage; RNA array
- TEST CONTEXT: with glucosamine-6-phosphate
Fewer inactive variants are shown than the library holds.

Guide cases for self-cleavage kobs at 640 uM GlcN6P, answers given:
- VARIANT STRING: "G9C A12C"
  METRIC NAME: "self-cleavage kobs at 640 uM GlcN6P"
  MEAS VALUE: "< 1e-05 s⁻¹"
- VARIANT STRING: "G37A C50U G51U"
  METRIC NAME: "self-cleavage kobs at 640 uM GlcN6P"
  MEAS VALUE: "< 1e-05 s⁻¹"
- VARIANT STRING: "A36G U56G"
  METRIC NAME: "self-cleavage kobs at 640 uM GlcN6P"
  MEAS VALUE: "< 1e-05 s⁻¹"
- VARIANT STRING: "G13U A15G"
  METRIC NAME: "self-cleavage kobs at 640 uM GlcN6P"
  MEAS VALUE: "0.000388 s⁻¹"

Would you mind giving self-cleavage kobs at 640 uM GlcN6P for every variant in the list below?
1. U46G G66A C70G
2. C11A A15C C50G

1. 0.000267 s⁻¹
2. 0.000113 s⁻¹

Would you mind giving self-cleavage kobs at 640 uM GlcN6P for every variant in the list below?
1. G7U C50U U65A U69C C71U
2. G37A C50G C71A
3. G13A A14C A42G C70U
4. G9A U49A
5. U65G U69G

["6.46e-05 s⁻¹", "0.000114 s⁻¹", "4.53e-05 s⁻¹", "< 1e-05 s⁻¹", "3.94e-05 s⁻¹"]

Would you mind giving self-cleavage kobs at 640 uM GlcN6P for every variant in the list below?
1. G9U G35A
2. A14C A64G
3. C16U G40A
4. C34U A64U G66C
5. C11U A52U G60C
6. U46G G66U
7. C8G G59U G66U
8. C11G A15U C34G A39U A48G

< 1e-05 s⁻¹
0.000733 s⁻¹
0.000996 s⁻¹
< 1e-05 s⁻¹
< 1e-05 s⁻¹
0.000177 s⁻¹
< 1e-05 s⁻¹
< 1e-05 s⁻¹
